# TEST_SYSTEM: T1, TROP2 antigen (extracellular region of TROP2, expressed in 293F cells) (human, UniProt P09758 27-274)
# T1 construct: extracellular domain; The antigen was coated on ELISA plates; For the Octet assay it was biotin-labelled and immobilized on streptavidin sensors; also called TROP2 protein
# T1 sequence (looked up): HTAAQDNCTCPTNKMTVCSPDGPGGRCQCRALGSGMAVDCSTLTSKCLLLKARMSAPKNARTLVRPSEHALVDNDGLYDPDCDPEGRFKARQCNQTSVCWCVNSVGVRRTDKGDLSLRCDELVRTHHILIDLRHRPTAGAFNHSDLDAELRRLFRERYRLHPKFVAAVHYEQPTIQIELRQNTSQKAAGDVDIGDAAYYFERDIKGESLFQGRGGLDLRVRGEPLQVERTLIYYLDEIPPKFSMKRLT
# TEST_NAME: BLI (ForteBio Octet), biotin-labelled antigen on streptavidin sensor, antibody in solution
# Description: Pall ForteBio Octet optical analysis technology platform is used to evaluate the absolute affinity of antibody-antigen binding. […] The interaction between the Trop2 antigen and the corresponding antibody is measured in real time, and the specificity of binding, binding rate, dissociation rate or sample concentration are precisely and accurately measured at each concentration. […]
MEASURED_PARAMETER: Kd (nM)
// note: answer is a bare numeric in nM

Worked examples follow.
4D3 humanized antibody (antibody, V domains shown, also called Hu4D3; hu4D3) VH: QVQLVQSGAEVKKPGASVKLSCKASGYTFTSFDINWVRQAPEQRLEWMGWIFPGDGNTKYSQKFQGRATITRDTSASTAYMELSSLRSEDTAVYYCVRGEALYYFDYWGQGTLVTVSS VL: DIQMTQSPSSLSASVGDRVTITCRASQDINKYLAWYQQKPGKVPKLLIYSTSTLQSGVPSRFSGSGSGTDFTLTISSLQPEDVATYYCLQYDDLFTFGQGTKLEIKR: 30.7
4D3 chimeric antibody (antibody, human IgG1, kappa, V domains shown, The entries begin with a leader (signal) peptide; also called ch4D3) VH: QVQLQQSGAELVKPGASVKLSCKASGYTFTSFDINWVRQRPEQGLEWIGWIFPGDGNTKSNEKFKGKATLTTDKSSSTAYMQLSRLTSEDSAVYFCVRGEALYYFDYWGPGTTLTVSS VL: DIQMTQSPSSLSASLGGKVTITCKPSQDINKYIAWYQHKPGKGPRLLIHSTSTLQPGIPSRFSGSGSGRDYSFTISNLEPEDIATYYCLQYDDLFTFGSGTKLEIKR: 6.89

[Q] Indicate the recorded Kd value for this binder: 7F11 humanized antibody (antibody, V domains shown, also called Hu7F11; hu7F11) VH: QVQLVQSGAEVKKPGASVKVSCKASGYTFTDHVISWVRQATGQGLEWMGQIYPGSDNSYYAQKFQGRVTLTADKSINTAYMELSSLRSEDTAVYYCAREGYGYGKNGVGYAMDYWGQGTLVTVSS VL: DIVMTQSPDSLAVSLGERATINCKASQSVSNDVVWYQQKPGQPPKLLIYYASNRYTGVPDRFSGSGYGTDFTLTISSLQAEDVAVYYCQQDYSSPWTFGGGTKVEIKR
[A] 0.0994
